Attribution: ChEMBL document CHEMBL1153058

Test system: MCF7
TEST_NAME: Cytotoxicity against human MCF7 cells after 48 hrs by MTT assay
Type: functional
CONDITIONS_USED: MCF7, 48 h
Where a SMILES comes first, the peptide text is derived from it. [ ]: non-standard residue; d: D form. The star is where a group is joined. βGlc = OC[C@H]1O[C@@H](*)[C@H](O)[C@@H](O)[C@@H]1O; NMeY = CN[C@@H](Cc1ccc(O)cc1)C(=O)O; NMeF = CN[C@@H](Cc1ccccc1)C(=O)O; 2Abz = Nc1ccccc1C(=O)O
OUTCOME_MEASURE: GI50 (µM)
Response body: numeric value in µM, unit text excluded.

CC(C)C[C@@H]1NC(=O)[C@H](Cc2ccccc2)N(C)C(=O)[C@H](C)NC(=O)c2ccccc2NC(=O)[C@H](Cc2ccc(O)cc2)N(C)C1=O [CYCLOASPEPTIDE A] (cyclo([2Abz]A[NMeF]L[NMeY])): 23.4

The compound identified as O=c1[nH]cc(F)c(=O)[nH]1 [FLUOROURACIL] registered its GI50 at 15

The compound identified as CS[C@]1(CO)C(=O)N(C)[C@](Cc2ccccc2)(SC)C(=O)N1C [BISDETHIODI(METHYLTHIO)HYALODENDRIN] registered its GI50 at 113

The compound identified as CC(C)C[C@@H]1NC(=O)[C@H](Cc2ccccc2)N(C)C(=O)[C@H](C)NC(=O)c2ccccc2NC(=O)[C@H](Cc2ccc(O[C@@H]3O[C@H](CO)[C@@H](O)[C@H](O)[C@H]3O)cc2)N(C)C1=O [Cycloaspeptide F] (cyclo([2Abz]A[NMeF]L[NMeY](βGlc))) registered its GI50 at 18.7

The compound identified as CC(C)C[C@@H]1NC(=O)[C@H](Cc2ccccc2)NC(=O)[C@H](C)NC(=O)c2ccccc2NC(=O)[C@H](Cc2ccc(O)cc2)N(C)C1=O [cycloaspeptide C] (cyclo([2Abz]AFL[NMeY])) registered its GI50 at 31.9

The compound identified as CC(C)C[C@@H]1NC(=O)[C@H](Cc2ccc(O)cc2)N(C)C(=O)[C@H](C)NC(=O)c2ccccc2NC(=O)[C@H](Cc2ccc(O)cc2)N(C)C1=O [Cycloaspeptide G] (cyclo([2Abz]A[NMeY]L[NMeY])) registered its GI50 at 15.2
